Reference source: ChEMBL document CHEMBL1811906

System: Escherichia coli
Protocol summary: Antimicrobial activity against Escherichia coli ATCC 25922 after 24 hrs by broth dilution method
Format: functional
Test context: ATCC 25922, 24 h
Residues, ends and D or L forms follow the SMILES beside them.
Can you tell me MIC for the items I'm about to list?
Reply with just the number (in µg/mL).

Q: Annotate the compound CC(C)C[C@@H]1NC(=O)[C@H](CCCCN)NC(=O)[C@H](C(C)C)NC(=O)[C@@H]2CCCN2C(=O)[C@@H](Cc2ccc(O)cc2)NC(=O)[C@H](CC(C)C)NC(=O)[C@H](CCCCN)NC(=O)[C@H](C(C)C)NC(=O)[C@H](CCCCN)NC(=O)[C@H](CC(C)C)NC(=O)[C@@H]2CCCN2C(=O)[C@@H](Cc2ccc(O)cc2)NC(=O)[C@H](C(C)C)NC(=O)[C@@H](CCCCN)NC1=O (HELM PEPTIDE1{K.L.[dK].V.[dY].P.L.K.V.K.L.[dY].P.V}$PEPTIDE1,PEPTIDE1,1:R1-14:R2$$$V2.0) with its measured MIC.
Ans: 64

Q: Annotate the compound `CC(C)C[C@@H]1NC(=O)[C@H](CCCN)NC(=O)[C@H](C(C)C)NC(=O)[C@@H]2CCCN2C(=O)[C@@H](Cc2ccccc2)NC(=O)[C@H](CC(C)C)NC(=O)[C@H](CCCN)NC(=O)[C@H](C(C)C)NC(=O)[C@H](CCCN)NC(=O)[C@H](CC(C)C)NC(=O)[C@@H]2O[C@H](CNC(=O)[C@H](C(C)C)NC(=O)[C@H](CCCN)NC1=O)[C@@H](OCc1ccccc1)[C@@H]2O` with its measured MIC.
Ans: 16

Q: Annotate the compound `CC(C)C[C@@H]1NC(=O)[C@H](CCCN)NC(=O)[C@H](C(C)C)NC(=O)[C@@H]2CCCN2C(=O)[C@@H](Cc2ccccc2)NC(=O)[C@H](CC(C)C)NC(=O)[C@H](CCCN)NC(=O)[C@H](C(C)C)NC(=O)[C@H](CCCN)NC(=O)[C@H](CC(C)C)NC(=O)[C@@H]2O[C@H](CNC(=O)[C@H](C(C)C)NC(=O)[C@@H](CCCN)NC1=O)[C@@H](OCc1ccccc1)[C@@H]2OCc1ccccc1` with its measured MIC.
Ans: 32

Q: Annotate the compound CC(C)C[C@@H]1NC(=O)[C@H](CCCN)NC(=O)[C@H](C(C)C)NC(=O)[C@@H]2CCCN2C(=O)[C@@H](Cc2ccccc2)NC(=O)[C@H](CC(C)C)NC(=O)[C@H](CCCN)NC(=O)[C@H](C(C)C)NC(=O)[C@@H]2CCCN2C(=O)[C@@H](Cc2ccccc2)NC1=O [GRAMICIDIN S] (HELM PEPTIDE1{L.[dF].P.V.[Orn].L.[dF].P.V.[Orn]}$PEPTIDE1,PEPTIDE1,1:R1-10:R2$$$V2.0) with its measured MIC.
Ans: 32

Q: Annotate the compound `CC(C)C[C@@H]1NC(=O)[C@H](CCCN)NC(=O)[C@H](C(C)C)NC(=O)[C@@H]2CCCN2C(=O)[C@@H](Cc2ccccc2)NC(=O)[C@H](CC(C)C)NC(=O)[C@H](CCCN)NC(=O)[C@H](C(C)C)NC(=O)[C@H](CCCN)NC(=O)[C@H](CC(C)C)NC(=O)[C@@H]2O[C@H](CNC(=O)[C@H](C(C)C)NC(=O)[C@@H](CCCN)NC1=O)[C@@H](O)[C@@H]2O` with its measured MIC.
Ans: 64

###

Can you tell me HD100 for the items I'm about to list?
Protocol summary: Toxicity in human erythrocytes assessed as hemolytic activity after 4 hrs
Type: cell-based
Test context: erythrocyte
Residues, ends and D or L forms follow the SMILES beside them.
Reply with just the number (in µM).

Q: Annotate the molecule CC(C)C[C@@H]1NC(=O)[C@H](CCCCN)NC(=O)[C@H](C(C)C)NC(=O)[C@@H]2CCCN2C(=O)[C@@H](Cc2ccc(O)cc2)NC(=O)[C@H](CC(C)C)NC(=O)[C@H](CCCCN)NC(=O)[C@H](C(C)C)NC(=O)[C@H](CCCCN)NC(=O)[C@H](CC(C)C)NC(=O)[C@@H]2CCCN2C(=O)[C@@H](Cc2ccc(O)cc2)NC(=O)[C@H](C(C)C)NC(=O)[C@H](CCCCN)NC1=O (HELM PEPTIDE1{K.L.K.V.[dY].P.L.K.V.K.L.[dY].P.V}$PEPTIDE1,PEPTIDE1,1:R1-14:R2$$$V2.0) with its measured HD100.
Ans: 3.9

Q: Annotate the molecule `CC(C)C[C@@H]1NC(=O)[C@H](CCCN)NC(=O)[C@H](C(C)C)NC(=O)[C@@H]2CCCN2C(=O)[C@@H](Cc2ccccc2)NC(=O)[C@H](CC(C)C)NC(=O)[C@H](CCCN)NC(=O)[C@H](C(C)C)NC(=O)[C@H](CCCN)NC(=O)[C@H](CC(C)C)NC(=O)[C@@H]2O[C@H](CNC(=O)[C@H](C(C)C)NC(=O)[C@H](CCCN)NC1=O)[C@@H](OCc1ccccc1)[C@@H]2O` with its measured HD100.
Ans: 15.6

Q: Annotate the molecule `CC(C)C[C@@H]1NC(=O)[C@H](CCCN)NC(=O)[C@H](C(C)C)NC(=O)[C@@H]2CCCN2C(=O)[C@@H](Cc2ccccc2)NC(=O)[C@H](CC(C)C)NC(=O)[C@H](CCCN)NC(=O)[C@H](C(C)C)NC(=O)[C@H](CCCN)NC(=O)[C@H](CC(C)C)NC(=O)[C@@H]2O[C@H](CNC(=O)[C@H](C(C)C)NC(=O)[C@@H](CCCN)NC1=O)[C@@H](OCc1ccccc1)[C@@H]2OCc1ccccc1` with its measured HD100.
Ans: 500

###

Can you tell me HD100 for the items I'm about to list?
Protocol summary: Toxicity in human erythrocytes assessed as hemolytic activity after 4 hrs
Type: cell-based
Test context: erythrocyte

Q: Annotate the compound `CC(C)C[C@@H]1NC(=O)[C@H](CCCN)NC(=O)[C@H](C(C)C)NC(=O)[C@@H]2CCCN2C(=O)[C@@H](Cc2ccccc2)NC(=O)[C@H](CC(C)C)NC(=O)[C@H](CCCN)NC(=O)[C@H](C(C)C)NC(=O)[C@H](CCCN)NC(=O)[C@H](CC(C)C)NC(=O)[C@@H]2O[C@H](CNC(=O)[C@H](C(C)C)NC(=O)[C@@H](CCCN)NC1=O)[C@@H](O)[C@@H]2O` with its measured HD100.
Ans: > 500 µM

Q: Annotate the compound `CC(C)C[C@@H]1NC(=O)[C@H](CCCN)NC(=O)[C@H](C(C)C)NC(=O)[C@@H]2CCCN2C(=O)[C@@H](Cc2ccccc2)NC(=O)[C@H](CC(C)C)NC(=O)[C@H](CCCN)NC(=O)[C@H](C(C)C)NC(=O)[C@H](CCCN)NC(=O)[C@H](CC(C)C)NC(=O)[C@@H]2O[C@H](CNC(=O)[C@H](C(C)C)NC(=O)[C@H](CCCN)NC1=O)[C@@H](OCc1ccccc1)[C@@H]2OCc1ccccc1` with its measured HD100.
Ans: 15.6 µM

Q: Annotate the compound `CC(C)C[C@@H]1NC(=O)[C@H](CCCN)NC(=O)[C@H](C(C)C)NC(=O)[C@@H]2CCCN2C(=O)[C@@H](Cc2ccccc2)NC(=O)[C@H](CC(C)C)NC(=O)[C@H](CCCN)NC(=O)[C@H](C(C)C)NC(=O)[C@H](CCCN)NC(=O)[C@H](CC(C)C)NC(=O)[C@@H]2O[C@H](CNC(=O)[C@H](C(C)C)NC(=O)[C@@H](CCCN)NC1=O)[C@@H](OCc1ccccc1)[C@@H]2O` with its measured HD100.
Ans: 500 µM

###

Tested on: Pseudomonas aeruginosa
Protocol summary: Antimicrobial activity against Pseudomonas aeruginosa ATCC 27853 after 24 hrs by broth dilution method
Format: functional
Test context: ATCC 27853, 24 h
Residues, ends and D or L forms follow the SMILES beside them.
Measurement kind: MIC (µg/mL)
Reply with just the number (in µg/mL).

Q: Annotate the molecule CC(C)C[C@@H]1NC(=O)[C@H](CCCN)NC(=O)[C@H](C(C)C)NC(=O)[C@@H]2CCCN2C(=O)[C@@H](Cc2ccccc2)NC(=O)[C@H](CC(C)C)NC(=O)[C@H](CCCN)NC(=O)[C@H](C(C)C)NC(=O)[C@@H]2CCCN2C(=O)[C@@H](Cc2ccccc2)NC1=O [GRAMICIDIN S] (HELM PEPTIDE1{L.[dF].P.V.[Orn].L.[dF].P.V.[Orn]}$PEPTIDE1,PEPTIDE1,1:R1-10:R2$$$V2.0) with its measured MIC.
Ans: 64

###

Test system: Klebsiella pneumoniae
Protocol summary: Antimicrobial activity against Klebsiella pneumoniae 1190901525 after 24 hrs by broth dilution method
Format: functional
Test context: Klebsiella pneumoniae, 1190901525, 24 h
Residues, ends and D or L forms follow the SMILES beside them.
Can you tell me MIC for the items I'm about to list?
Reply with just the number (in µg/mL).

Q: Please report the measured MIC for CC(C)C[C@@H]1NC(=O)[C@H](CCCCN)NC(=O)[C@H](C(C)C)NC(=O)[C@@H]2CCCN2C(=O)[C@@H](Cc2ccc(O)cc2)NC(=O)[C@H](CC(C)C)NC(=O)[C@H](CCCCN)NC(=O)[C@H](C(C)C)NC(=O)[C@H](CCCCN)NC(=O)[C@H](CC(C)C)NC(=O)[C@@H]2CCCN2C(=O)[C@@H](Cc2ccc(O)cc2)NC(=O)[C@H](C(C)C)NC(=O)[C@@H](CCCCN)NC1=O (HELM PEPTIDE1{K.L.[dK].V.[dY].P.L.K.V.K.L.[dY].P.V}$PEPTIDE1,PEPTIDE1,1:R1-14:R2$$$V2.0) tested on Klebsiella pneumoniae.
Ans: 64

Q: Please report the measured MIC for `CC(C)C[C@@H]1NC(=O)[C@H](CCCN)NC(=O)[C@H](C(C)C)NC(=O)[C@@H]2CCCN2C(=O)[C@@H](Cc2ccccc2)NC(=O)[C@H](CC(C)C)NC(=O)[C@H](CCCN)NC(=O)[C@H](C(C)C)NC(=O)[C@H](CCCN)NC(=O)[C@H](CC(C)C)NC(=O)[C@@H]2O[C@H](CNC(=O)[C@H](C(C)C)NC(=O)[C@H](CCCN)NC1=O)[C@@H](O)[C@@H]2O` tested on Klebsiella pneumoniae.
Ans: 16

Q: Please report the measured MIC for `CC(C)C[C@@H]1NC(=O)[C@H](CCCN)NC(=O)[C@H](C(C)C)NC(=O)[C@@H]2CCCN2C(=O)[C@@H](Cc2ccccc2)NC(=O)[C@H](CC(C)C)NC(=O)[C@H](CCCN)NC(=O)[C@H](C(C)C)NC(=O)[C@H](CCCN)NC(=O)[C@H](CC(C)C)NC(=O)[C@@H]2O[C@H](CNC(=O)[C@H](C(C)C)NC(=O)[C@H](CCCN)NC1=O)[C@@H](OCc1ccccc1)[C@@H]2O` tested on Klebsiella pneumoniae.
Ans: 16

Q: Please report the measured MIC for `CC(C)C[C@@H]1NC(=O)[C@H](CCCN)NC(=O)[C@H](C(C)C)NC(=O)[C@@H]2CCCN2C(=O)[C@@H](Cc2ccccc2)NC(=O)[C@H](CC(C)C)NC(=O)[C@H](CCCN)NC(=O)[C@H](C(C)C)NC(=O)[C@H](CCCN)NC(=O)[C@H](CC(C)C)NC(=O)[C@@H]2CCCN2C(=O)[C@@H](Cc2ccccc2)NC(=O)[C@H](C(C)C)NC(=O)[C@@H](CCCN)NC1=O` tested on Klebsiella pneumoniae.
Ans: 32

Q: Please report the measured MIC for `CC(C)C[C@@H]1NC(=O)[C@H](CCCN)NC(=O)[C@H](C(C)C)NC(=O)[C@@H]2CCCN2C(=O)[C@@H](Cc2ccccc2)NC(=O)[C@H](CC(C)C)NC(=O)[C@H](CCCN)NC(=O)[C@H](C(C)C)NC(=O)[C@H](CCCN)NC(=O)[C@H](CC(C)C)NC(=O)[C@@H]2CCCN2C(=O)[C@@H](Cc2ccccc2)NC(=O)[C@H](C(C)C)NC(=O)[C@H](CCCN)NC1=O` tested on Klebsiella pneumoniae.
Ans: 64

Q: Please report the measured MIC for CC(C)C[C@@H]1NC(=O)[C@H](CCCN)NC(=O)[C@H](C(C)C)NC(=O)[C@@H]2CCCN2C(=O)[C@@H](Cc2ccccc2)NC(=O)[C@H](CC(C)C)NC(=O)[C@H](CCCN)NC(=O)[C@H](C(C)C)NC(=O)[C@@H]2CCCN2C(=O)[C@@H](Cc2ccccc2)NC1=O [GRAMICIDIN S] (HELM PEPTIDE1{L.[dF].P.V.[Orn].L.[dF].P.V.[Orn]}$PEPTIDE1,PEPTIDE1,1:R1-10:R2$$$V2.0) tested on Klebsiella pneumoniae.
Ans: 64

Q: Please report the measured MIC for `CC(C)C[C@@H]1NC(=O)[C@H](CCCN)NC(=O)[C@H](C(C)C)NC(=O)[C@@H]2CCCN2C(=O)[C@@H](Cc2ccccc2)NC(=O)[C@H](CC(C)C)NC(=O)[C@H](CCCN)NC(=O)[C@H](C(C)C)NC(=O)[C@H](CCCN)NC(=O)[C@H](CC(C)C)NC(=O)[C@@H]2O[C@H](CNC(=O)[C@H](C(C)C)NC(=O)[C@H](CCCN)NC1=O)[C@@H](OCc1ccccc1)[C@@H]2OCc1ccccc1` tested on Klebsiella pneumoniae.
Ans: 32

Q: Please report the measured MIC for `CC(C)C[C@@H]1NC(=O)[C@H](CCCN)NC(=O)[C@H](C(C)C)NC(=O)[C@@H]2CCCN2C(=O)[C@@H](Cc2ccccc2)NC(=O)[C@H](CC(C)C)NC(=O)[C@H](CCCN)NC(=O)[C@H](C(C)C)NC(=O)[C@H](CCCN)NC(=O)[C@H](CC(C)C)NC(=O)[C@@H]2O[C@H](CNC(=O)[C@H](C(C)C)NC(=O)[C@@H](CCCN)NC1=O)[C@@H](OCc1ccccc1)[C@@H]2O` tested on Klebsiella pneumoniae.
Ans: 32

Q: Please report the measured MIC for `CC(C)C[C@@H]1NC(=O)[C@H](CCCN)NC(=O)[C@H](C(C)C)NC(=O)[C@@H]2CCCN2C(=O)[C@@H](Cc2ccccc2)NC(=O)[C@H](CC(C)C)NC(=O)[C@H](CCCN)NC(=O)[C@H](C(C)C)NC(=O)[C@H](CCCN)NC(=O)[C@H](CC(C)C)NC(=O)[C@@H]2O[C@H](CNC(=O)[C@H](C(C)C)NC(=O)[C@@H](CCCN)NC1=O)[C@@H](OCc1ccccc1)[C@@H]2OCc1ccccc1` tested on Klebsiella pneumoniae.
Ans: 32
